# credit: ChEMBL document CHEMBL2218924

Molecular target: Serine/threonine-protein kinase 24 (Homo sapiens) (UniProt Q9Y6E0)
Sequence (Q9Y6E0 whole entry, looked up): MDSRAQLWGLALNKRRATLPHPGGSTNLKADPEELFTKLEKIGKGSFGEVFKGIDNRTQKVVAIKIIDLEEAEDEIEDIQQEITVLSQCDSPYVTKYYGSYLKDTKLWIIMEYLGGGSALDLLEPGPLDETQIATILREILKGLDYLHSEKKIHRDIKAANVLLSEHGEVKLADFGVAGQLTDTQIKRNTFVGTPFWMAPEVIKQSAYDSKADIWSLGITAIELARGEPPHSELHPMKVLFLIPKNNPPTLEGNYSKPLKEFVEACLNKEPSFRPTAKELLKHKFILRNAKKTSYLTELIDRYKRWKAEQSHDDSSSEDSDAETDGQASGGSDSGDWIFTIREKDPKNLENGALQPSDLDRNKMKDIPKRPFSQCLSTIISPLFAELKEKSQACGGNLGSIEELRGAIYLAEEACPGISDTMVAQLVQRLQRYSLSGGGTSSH
Details: at 1 µM
For each record, write down the corresponding residual activity.
Entry rule: numbers only, all in %.

Data request: Request the reported residual activity associated with COC(=O)[C@@]1(O)C[C@H]2O[C@]1(C)n1c3ccccc3c3c4c(c5c6ccccc6n2c5c31)C(=O)NC4
Data returned: 14

Data request: Likewise for O=[N+]([O-])/C=C/c1ccc2c(c1)OCO2 ?
Data returned: 77

Data request: Repeat for the following molecule: O=C1NC(=O)c2c1c1c3ccccc3n3c1c1c2c2ccccc2n1C1CCC3O1
Data returned: 80

Data request: Next molecule: O=c1[nH]c2ccccc2n1C1CCN(Cc2ccc(-c3nc4cc5[nH]cnc5cc4nc3-c3ccccc3)cc2)CC1
Data returned: 72

Data request: What would you report for N/C(=N\[N+](=O)[O-])N/N=C\c1ccc(-c2cccc([N+](=O)[O-])c2)o1 ?
Data returned: 98
